So I've got a bunch of compounds here, and I need their log10 of GI50 values.
Molecular target: Ba/F3 ERBB2-V777_G778insGC (Homo sapiens, UniProt P04626, INS778CG, cells depend on it)
Construct: Ba/F3 cell lines were engineered to express human ERBB2 or EGFR kinases, rendering the cells IL-3 independent
Assay: Cell viability assay (CellTiter Glo)
Format: cell-based, mouse
Conditions: 72 hours; 3000 cells per well, 96-well plates; read-out: Cell viability IC50, nM, Ba/F3 ERBB2-V777_G778insGC
Procedure: Cells were treated with compounds, and cell viability was measured as a metric of kinase inhibition. The Ba/F3 cell line is IL-3-dependent mouse cell line derived from the C3H mouse strain. […] Similarly, Ba/F3 cell lines engineered to express EGFR, ERBB2, or ERBB2 mutants were grown, harvested, counted and seeded at 3000 cells per well in 96-well plates for the data sets shown in Tables B3-B4, and seeded at 300 cells per well in 384-well plates for the data set shown in Table B5. […]
log10 GI50, nM

Identify measured log10 of GI50 associated with CC#CC(=O)Nc1ccc2ncnc(Nc3ccc(Oc4cnc(C)cn4)cc3)c2c1
0.97

Return log10 of GI50 (reported value) for this compound: Cc1cc(Nc2ncnc3ccc(NC4=NC(C)(C)CO4)cc23)ccc1Oc1ccn2ncnc2c1 [Tucatinib, tucatinib, reference compound]
1.10

Annotate the compound CC#CC(=O)N(C)c1ccc2ncnc(Nc3ccc(Oc4ccn5ncnc5c4)cc3)c2c1 with its measured log10 of GI50.
1.53

Give reported log10 of GI50 value for CC#CC(=O)Nc1ccc2ncnc(Nc3ccc(Cc4ccn5ncnc5c4)cc3)c2c1
0.60

Supply reported log10 of GI50 belonging to this compound: CC#CC(=O)Nc1ccc2ncnc(Nc3ccc(Oc4ccc(C)nc4)cc3)c2c1
0.38

Report measured log10 of GI50; entry is CC#CC(=O)Nc1cc2c(Nc3ccc(Oc4ccn5ncnc5c4)c(C)c3)ncnc2cc1OCCN(C)C
0.48

Output log10 of GI50 of CC#CC(=O)Nc1ccc2ncnc(Nc3ccc(Oc4ccc(C)nc4)c(C)c3)c2c1
0.11

====

Target: Ba/F3 ERBB2-T798M (Homo sapiens, UniProt P04626, T798M, cells depend on it)
Construct: Ba/F3 cell lines were engineered to express human ERBB2 or EGFR kinases, rendering the cells IL-3 independent
Sequence (P04626 whole entry T798M): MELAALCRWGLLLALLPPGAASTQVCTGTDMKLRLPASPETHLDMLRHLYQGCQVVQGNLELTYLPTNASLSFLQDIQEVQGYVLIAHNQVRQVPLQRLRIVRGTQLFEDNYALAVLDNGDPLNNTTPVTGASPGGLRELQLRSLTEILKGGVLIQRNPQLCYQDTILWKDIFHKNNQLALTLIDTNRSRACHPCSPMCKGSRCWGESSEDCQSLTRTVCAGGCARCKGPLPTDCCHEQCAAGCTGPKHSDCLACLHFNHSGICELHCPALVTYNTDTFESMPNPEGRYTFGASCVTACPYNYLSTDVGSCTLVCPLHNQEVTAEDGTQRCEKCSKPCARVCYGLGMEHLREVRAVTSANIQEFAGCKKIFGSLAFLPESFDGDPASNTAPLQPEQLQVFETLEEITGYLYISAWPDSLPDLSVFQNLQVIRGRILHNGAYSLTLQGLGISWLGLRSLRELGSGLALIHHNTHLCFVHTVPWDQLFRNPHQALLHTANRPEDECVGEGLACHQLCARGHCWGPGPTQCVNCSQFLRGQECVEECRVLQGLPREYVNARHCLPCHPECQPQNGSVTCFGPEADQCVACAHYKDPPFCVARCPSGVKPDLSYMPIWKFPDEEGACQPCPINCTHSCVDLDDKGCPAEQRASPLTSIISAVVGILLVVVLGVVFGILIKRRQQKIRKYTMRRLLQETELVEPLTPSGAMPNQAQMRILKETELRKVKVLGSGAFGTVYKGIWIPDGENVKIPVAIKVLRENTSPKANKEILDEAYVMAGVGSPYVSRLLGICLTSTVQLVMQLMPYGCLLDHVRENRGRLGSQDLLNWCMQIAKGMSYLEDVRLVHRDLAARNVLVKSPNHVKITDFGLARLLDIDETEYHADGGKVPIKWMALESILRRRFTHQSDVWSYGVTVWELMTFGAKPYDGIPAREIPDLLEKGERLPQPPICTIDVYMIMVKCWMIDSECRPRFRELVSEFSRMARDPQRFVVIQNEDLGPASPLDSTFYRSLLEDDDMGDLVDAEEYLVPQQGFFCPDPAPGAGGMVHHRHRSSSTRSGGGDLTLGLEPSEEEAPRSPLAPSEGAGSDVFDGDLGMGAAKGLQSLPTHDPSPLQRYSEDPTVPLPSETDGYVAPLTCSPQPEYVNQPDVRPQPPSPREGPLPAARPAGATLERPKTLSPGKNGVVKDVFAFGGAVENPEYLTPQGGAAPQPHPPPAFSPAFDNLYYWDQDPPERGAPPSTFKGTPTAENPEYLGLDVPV
Assay: Cell viability assay (CellTiter Glo)
Assay type: cell-based, mouse
Details: 72 hours; 3000 cells per well, 96-well plates; read-out: Cell viability IC50, nM, Ba/F3 ERBB2-T798M
property_measured: GI50 (nM)
The response must be a number in nM with no trailing unit.

Please indicate recorded GI50 of CC#CC(=O)Nc1ccc2ncnc(Nc3ccc(Oc4ccn5ncnc5c4)c(C)c3)c2c1 measured with Ba/F3 ERBB2-T798M (Homo sapiens, UniProt P04626, T798M, cells depend on it).
15

Find the measured GI50 of CC#CC(=O)Nc1ccc2ncnc(Nc3ccc(Cc4ccn5ncnc5c4)cc3)c2c1 with Ba/F3 ERBB2-T798M (Homo sapiens, UniProt P04626, T798M, cells depend on it) as test system.
482

Report value only: GI50, Ba/F3 ERBB2-T798M (Homo sapiens, UniProt P04626, T798M, cells depend on it), Cc1cc(Nc2ncnc3ccc(NC4=NC(C)(C)CO4)cc23)ccc1Oc1ccn2ncnc2c1 [Tucatinib, tucatinib, reference compound]
1370

State recorded GI50 with Ba/F3 ERBB2-T798M (Homo sapiens, UniProt P04626, T798M, cells depend on it), entry CC#CC(=O)N(C)c1ccc2ncnc(Nc3ccc(Oc4ccn5ncnc5c4)cc3)c2c1 , no comment.
1500

Report measured GI50 on Ba/F3 ERBB2-T798M (Homo sapiens, UniProt P04626, T798M, cells depend on it); entry: CC#CC(=O)Nc1ccc2ncnc(Nc3ccc(Oc4ccc(C)nc4)cc3)c2c1
239

Name the value of GI50 reported for CC#CC(=O)Nc1ccc2ncnc(Nc3ccc(Oc4ccc(C)nc4)c(C)c3)c2c1 when tested on Ba/F3 ERBB2-T798M (Homo sapiens, UniProt P04626, T798M, cells depend on it).
44

// fetch GI50 for CC#CC(=O)Nc1ccc2ncnc(Nc3ccc(Oc4cnc(C)cn4)cc3)c2c1 ; system: Ba/F3 ERBB2-T798M (Homo sapiens, UniProt P04626, T798M, cells depend on it)
220

Please report GI50 with Ba/F3 ERBB2-T798M (Homo sapiens, UniProt P04626, T798M, cells depend on it) for item CC#CC(=O)Nc1cc2c(Nc3ccc(Oc4ccn5ncnc5c4)c(C)c3)ncnc2cc1OCCN(C)C .
56.9

====

Target: Ba/F3 ERBB2 wt (Homo sapiens, UniProt P04626)
Construct: Ba/F3 cell lines were engineered to express human ERBB2 or EGFR kinases, rendering the cells IL-3 independent
Sequence (P04626 whole entry, change not shown): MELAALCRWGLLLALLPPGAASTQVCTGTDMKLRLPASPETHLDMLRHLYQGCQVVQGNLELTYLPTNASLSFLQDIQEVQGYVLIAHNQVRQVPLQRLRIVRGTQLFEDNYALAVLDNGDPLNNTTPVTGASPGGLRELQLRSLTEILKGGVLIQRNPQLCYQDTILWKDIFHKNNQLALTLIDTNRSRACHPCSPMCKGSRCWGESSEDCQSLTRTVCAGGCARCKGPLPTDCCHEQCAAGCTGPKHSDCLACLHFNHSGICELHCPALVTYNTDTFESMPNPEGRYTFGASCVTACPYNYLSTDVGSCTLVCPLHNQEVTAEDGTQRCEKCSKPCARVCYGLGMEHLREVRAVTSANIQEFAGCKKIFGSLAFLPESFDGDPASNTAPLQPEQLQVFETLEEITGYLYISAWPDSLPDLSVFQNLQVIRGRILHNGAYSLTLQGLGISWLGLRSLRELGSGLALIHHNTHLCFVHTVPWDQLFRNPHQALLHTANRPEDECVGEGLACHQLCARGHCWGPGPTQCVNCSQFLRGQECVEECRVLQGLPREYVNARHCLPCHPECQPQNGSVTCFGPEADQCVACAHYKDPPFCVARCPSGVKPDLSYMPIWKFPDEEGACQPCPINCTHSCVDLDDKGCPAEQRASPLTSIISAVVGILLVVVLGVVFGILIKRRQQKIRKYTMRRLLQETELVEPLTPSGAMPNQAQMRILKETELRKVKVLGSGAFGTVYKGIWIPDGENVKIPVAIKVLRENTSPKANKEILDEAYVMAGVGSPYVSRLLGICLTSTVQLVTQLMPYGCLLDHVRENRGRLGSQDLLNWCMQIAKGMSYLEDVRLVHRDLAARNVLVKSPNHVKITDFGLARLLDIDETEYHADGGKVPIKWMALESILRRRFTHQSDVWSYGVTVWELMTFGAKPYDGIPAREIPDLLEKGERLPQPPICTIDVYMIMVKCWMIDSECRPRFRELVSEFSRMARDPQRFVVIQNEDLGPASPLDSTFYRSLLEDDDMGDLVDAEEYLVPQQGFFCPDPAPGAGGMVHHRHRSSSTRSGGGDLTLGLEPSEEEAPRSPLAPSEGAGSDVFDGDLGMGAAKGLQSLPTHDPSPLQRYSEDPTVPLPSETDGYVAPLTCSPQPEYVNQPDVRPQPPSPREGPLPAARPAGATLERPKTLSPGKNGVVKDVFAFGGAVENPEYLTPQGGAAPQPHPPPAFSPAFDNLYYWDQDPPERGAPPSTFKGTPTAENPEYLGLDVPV
Assay: Cell viability assay (CellTiter Glo)
Format: cell-based, mouse
Conditions: 72 hours; 3000 cells per well, 96-well plates; read-out: Cell viability IC50, nM, Ba/F3 ERBB2 wt
property_measured: GI50 (nM)
Hi! Could you send only the number? It should be in nM, unit omitted.

Fill in GI50 for record CC#CC(=O)Nc1ccc2ncnc(Nc3ccc(Oc4ccc(C)nc4)cc3)c2c1
5.7

# return recorded GI50 for input CC#CC(=O)Nc1ccc2ncnc(Nc3ccc(Oc4ccn(C)c(=O)c4)c(C)c3)c2c1
18

Identify GI50 associated with the compound CC#CC(=O)N(C)c1ccc2ncnc(Nc3ccc(Oc4ccn5ncnc5c4)cc3)c2c1
31

Assign GI50 to the following record: CC#CC(=O)Nc1ccc2ncnc(Nc3ccc(Oc4ccn5ncnc5c4)c(C)c3)c2c1
1.5

Give the reported value of GI50 for this record: CC#CC(=O)Nc1ccc2ncnc(Nc3ccc(Cc4ccn5ncnc5c4)cc3)c2c1
5.1

====

Biological target: Ba/F3 ERBB2 A775_G776insYVMA (Homo sapiens, UniProt P04626, DUP772-775, cells depend on it)
Construct: Ba/F3 cell lines were engineered to express human ERBB2 or EGFR kinases, rendering the cells IL-3 independent
Sequence (P04626 with tags, fused parts or gaps DUP772-775): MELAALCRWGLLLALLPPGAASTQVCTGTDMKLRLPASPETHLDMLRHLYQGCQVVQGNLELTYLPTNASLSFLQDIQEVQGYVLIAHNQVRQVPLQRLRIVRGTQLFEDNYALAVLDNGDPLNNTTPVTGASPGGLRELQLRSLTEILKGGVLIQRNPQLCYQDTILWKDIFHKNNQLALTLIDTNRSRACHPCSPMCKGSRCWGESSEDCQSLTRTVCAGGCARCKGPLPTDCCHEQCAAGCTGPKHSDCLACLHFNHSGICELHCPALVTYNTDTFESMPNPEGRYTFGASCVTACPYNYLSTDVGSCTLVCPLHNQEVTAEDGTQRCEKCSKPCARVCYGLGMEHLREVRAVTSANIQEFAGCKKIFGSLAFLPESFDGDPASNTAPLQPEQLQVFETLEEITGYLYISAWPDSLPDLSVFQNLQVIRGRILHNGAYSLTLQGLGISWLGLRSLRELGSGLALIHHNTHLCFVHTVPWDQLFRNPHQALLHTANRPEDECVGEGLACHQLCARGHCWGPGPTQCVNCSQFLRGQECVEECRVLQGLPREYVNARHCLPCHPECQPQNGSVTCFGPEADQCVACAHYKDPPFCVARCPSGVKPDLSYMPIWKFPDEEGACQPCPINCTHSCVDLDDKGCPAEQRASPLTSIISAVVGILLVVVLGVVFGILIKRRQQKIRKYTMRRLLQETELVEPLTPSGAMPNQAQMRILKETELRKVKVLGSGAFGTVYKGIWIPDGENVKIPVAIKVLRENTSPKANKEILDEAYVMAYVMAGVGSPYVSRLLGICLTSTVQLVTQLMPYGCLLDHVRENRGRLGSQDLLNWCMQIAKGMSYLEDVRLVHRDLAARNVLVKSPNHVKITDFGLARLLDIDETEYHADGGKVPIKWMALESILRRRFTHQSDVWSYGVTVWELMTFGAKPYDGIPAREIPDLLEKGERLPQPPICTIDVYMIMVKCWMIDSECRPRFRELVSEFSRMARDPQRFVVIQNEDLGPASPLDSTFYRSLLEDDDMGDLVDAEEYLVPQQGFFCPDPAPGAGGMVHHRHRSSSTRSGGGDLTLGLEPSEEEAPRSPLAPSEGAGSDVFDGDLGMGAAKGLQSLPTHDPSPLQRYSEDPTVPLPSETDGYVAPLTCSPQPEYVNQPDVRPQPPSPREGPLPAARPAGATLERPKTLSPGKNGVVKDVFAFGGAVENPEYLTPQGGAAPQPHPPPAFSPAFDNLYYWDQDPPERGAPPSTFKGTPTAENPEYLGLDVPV
Assay: Cell viability assay (CellTiter Glo)
Assay type: cell-based, mouse
Conditions: 72 hours; 3000 cells per well, 96-well plates (Tables B3-B4); read-out: Cell viability IC50, nM, Ba/F3 ERBB2 A775_G776insYVMA
Label yes when GI50 is strictly below 40 nM; otherwise label no.

Is it true that GI50 reported for CC#CC(=O)Nc1ccc2ncnc(Nc3ccc(Cc4ccn5ncnc5c4)cc3)c2c1 [Compound 14] is less than 40 nM?
yes

Given the entry CC#CC(=O)N(C)c1ccc2ncnc(Nc3ccc(Oc4ccn5ncnc5c4)cc3)c2c1 [Compound 8] , would its reported GI50 be below 40 nM?
no

A record lists CC#CC(=O)Nc1ccc2ncnc(Nc3ccc(Oc4ccn5ncnc5c4)c(C)c3)c2c1 [Compound 1] . Is its GI50 below 40 nM?
yes

is_below(GI50, 40 nM) for CC#CC(=O)Nc1ccc2ncnc(Nc3ccc(Oc4cnc(C)cn4)cc3)c2c1 [Compound 10] ?
no

In the record for CC#CC(=O)Nc1cc2c(Nc3ccc(Oc4ccn5ncnc5c4)c(C)c3)ncnc2cc1OCCN(C)C [Compound 150] , is GI50 less than 40 nM?
yes

====

I'd be grateful if you could share measured log10 IC50 for these entries.
Test system: MDA-MB-175VII cells
Assay: Cell viability assay (CellTiter Glo)
Type: cell-based
Conditions: Homo sapiens, 72 hours, 2000 cells per well, 384-well, RPMI + 10% FBS
log10 IC50, nM

Fill: log10 IC50 (MDA-MB-175VII cells) for this compound CC#CC(=O)Nc1ccc2ncnc(Nc3ccc(Oc4cnc(C)cn4)cc3)c2c1
2.37

Enter measured log10 IC50, system MDA-MB-175VII cells, for the compound shown: CC#CC(=O)Nc1ccc2ncnc(Nc3ccc(Oc4ccc(C)nc4)cc3)c2c1
2.15

Under MDA-MB-175VII cells, report log10 IC50 for Cc1cc(Nc2ncnc3ccc(NC4=NC(C)(C)CO4)cc23)ccc1Oc1ccn2ncnc2c1 [Tucatinib, tucatinib, reference compound]
1.95

Report measured log10 IC50 on MDA-MB-175VII cells; entry: CC#CC(=O)N(C)c1ccc2ncnc(Nc3ccc(Oc4ccn5ncnc5c4)cc3)c2c1
2.75

Enter log10 IC50 (test system MDA-MB-175VII cells) for CC#CC(=O)Nc1ccc2ncnc(Nc3ccc(Cc4ccn5ncnc5c4)cc3)c2c1
1.48

Provide the reported log10 IC50 (system: MDA-MB-175VII cells) for CC#CC(=O)Nc1ccc2ncnc(Nc3ccc(Oc4ccn(C)c(=O)c4)c(C)c3)c2c1
1.64

State the measured log10 IC50 (MDA-MB-175VII cells) of CC#CC(=O)Nc1ccc2ncnc(Nc3ccc(Oc4ccn5ncnc5c4)c(C)c3)c2c1
0.95

====

Biological target: phosphorylated EGFR (pEGFR) (Homo sapiens)
Construct: endogenous in cells
Sequence (P00533 25-1210): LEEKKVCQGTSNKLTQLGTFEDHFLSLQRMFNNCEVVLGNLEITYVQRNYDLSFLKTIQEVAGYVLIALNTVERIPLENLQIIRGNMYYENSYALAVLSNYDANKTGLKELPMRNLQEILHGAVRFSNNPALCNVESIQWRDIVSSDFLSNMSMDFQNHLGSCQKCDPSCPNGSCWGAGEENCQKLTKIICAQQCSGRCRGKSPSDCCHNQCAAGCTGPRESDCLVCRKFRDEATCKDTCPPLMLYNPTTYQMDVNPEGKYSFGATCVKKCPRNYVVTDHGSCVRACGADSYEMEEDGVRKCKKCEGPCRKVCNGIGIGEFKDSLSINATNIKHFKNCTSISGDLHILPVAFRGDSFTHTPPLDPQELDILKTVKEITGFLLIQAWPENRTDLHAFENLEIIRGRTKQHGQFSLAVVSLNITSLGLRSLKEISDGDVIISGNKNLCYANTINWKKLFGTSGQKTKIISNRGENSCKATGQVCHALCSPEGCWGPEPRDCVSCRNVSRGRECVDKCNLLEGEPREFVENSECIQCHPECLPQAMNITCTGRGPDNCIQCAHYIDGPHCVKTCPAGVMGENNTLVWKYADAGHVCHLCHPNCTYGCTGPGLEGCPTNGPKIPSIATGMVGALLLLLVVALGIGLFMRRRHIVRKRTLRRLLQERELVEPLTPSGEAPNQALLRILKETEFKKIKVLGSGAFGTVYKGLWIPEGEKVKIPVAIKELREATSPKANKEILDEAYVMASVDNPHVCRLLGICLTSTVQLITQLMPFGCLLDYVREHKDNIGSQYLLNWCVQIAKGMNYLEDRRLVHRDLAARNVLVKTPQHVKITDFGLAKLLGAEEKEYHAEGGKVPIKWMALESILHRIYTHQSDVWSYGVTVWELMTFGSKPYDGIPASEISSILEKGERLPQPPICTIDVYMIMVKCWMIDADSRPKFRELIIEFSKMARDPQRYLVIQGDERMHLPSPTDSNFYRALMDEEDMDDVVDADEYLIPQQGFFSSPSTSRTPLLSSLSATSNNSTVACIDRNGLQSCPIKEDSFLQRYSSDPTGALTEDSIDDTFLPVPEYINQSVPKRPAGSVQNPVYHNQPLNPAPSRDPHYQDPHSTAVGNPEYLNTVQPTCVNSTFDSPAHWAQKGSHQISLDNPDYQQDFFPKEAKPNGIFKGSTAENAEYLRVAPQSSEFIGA
Assay: Detection of phosphorylated EGFR (pEGFR) in EGF-stimulated A431 cells (AlphaLISA)
Settings: A431 cells (10% FBS), 4 hours with compound, then EGF 30 ng/mL for 10 minutes
property_measured: IC50 (nM)
Your answer should be a plain number; it is taken to be in nM.

Provide measured IC50 value, entry: CC#CC(=O)Nc1ccc2ncnc(Nc3ccc(Oc4ccc5c(c4)ncn5C)c(C)c3)c2c1
377

Please supply the value of reported IC50 for the item CC#CC(=O)Nc1cc2c(Nc3ccc(Cc4ccn5ncnc5c4)c(C)c3)ncnc2cc1OCCN(C)C
943

Respond only with IC50 recorded for CC#CC(=O)Nc1cc2c(Nc3ccc(Oc4ccn5ncnc5c4)c(C4CC4)c3)ncnc2cc1OCCN(C)C
7070

Data origin, for the record: patent US20230265098A1
